# System: HIV-1 (IIIB) in MT-4 cells
# TEST_SUMMARY: HIV MT-4 antiviral assay
# Format: cell-based
# MEASUREMENT_CONDITIONS: Human immunodeficiency virus 1, MT4, 120 h, 5 days, Cell Titer Glo
pEC50: −log10 of the molar value.
MEASURED_PARAMETER: pEC50

> print(dat)
                                         smi                      target  measured.parameter  value.observed
 1  C[C@H]1CC[C@@H](O)[C@H]2CN1C(=O)c1c(O)c(=O)c(C(=O)NCc3c(F)cc(F)cc3F)cn12  HIV-1 (IIIB) in MT-4 cells               pEC50            8.74
 2  [2H][C@]1(OC)C=C[C@H](C)N2C[C@H]1n1cc(C(=O)NCc3ccc(F)cc3F)c(=O)c(O)c1C2=O  HIV-1 (IIIB) in MT-4 cells               pEC50            8.74
 3  C[C@H]1CC[C@H](O)[C@H]2CN1C(=O)c1c(O)c(=O)c(C(=O)NCc3c(F)cc(F)cc3F)cn12  HIV-1 (IIIB) in MT-4 cells               pEC50            8.74
 4  CO[C@@]1(C)CC[C@H](C)N2C[C@H]1n1cc(C(=O)NCc3c(F)cc(F)cc3F)c(=O)c(O)c1C2=O  HIV-1 (IIIB) in MT-4 cells               pEC50            8.66
 5  C[C@H]1C=C[C@@H](Cl)[C@H]2CN1C(=O)c1c(O)c(=O)c(C(=O)NCc3ccc(F)cc3F)cn12  HIV-1 (IIIB) in MT-4 cells               pEC50            8.82
 6  CCO[C@H]1C=C[C@H](C)N2C[C@H]1n1cc(C(=O)NCc3c(F)cc(F)cc3F)c(=O)c(O)c1C2=O  HIV-1 (IIIB) in MT-4 cells               pEC50            8.39
 7  CO[C@H]1C[C@H](F)[C@H](C)N2C[C@H]1n1cc(C(=O)NCc3c(F)cc(F)cc3F)c(=O)c(O)c1C2=O  HIV-1 (IIIB) in MT-4 cells               pEC50            8.96
 8  CO[C@@H]1C=C[C@H](C)N2C[C@H]1n1cc(C(=O)NCc3ccc(F)cc3F)c(=O)c(O)c1C2=O  HIV-1 (IIIB) in MT-4 cells               pEC50            8.92
 9  CO[C@@H]1C=C[C@H](C)N2C[C@H]1n1cc(C(=O)NCc3c(F)cc(F)cc3F)c(=O)c(O)c1C2=O  HIV-1 (IIIB) in MT-4 cells               pEC50            8.96
10  CO[C@H]1CC[C@H](C)N2C[C@H]1n1cc(C(=O)NCc3ccc(F)cc3F)c(=O)c(O)c1C2=O  HIV-1 (IIIB) in MT-4 cells               pEC50            8.82
11  CO[C@H]1CC[C@@H](C)N2C[C@H]1n1cc(C(=O)NCc3ccc(F)cc3F)c(=O)c(O)c1C2=O  HIV-1 (IIIB) in MT-4 cells               pEC50            8.72
12  CCO[C@H]1CC[C@H](C)N2C[C@H]1n1cc(C(=O)NCc3c(F)cc(F)cc3F)c(=O)c(O)c1C2=O  HIV-1 (IIIB) in MT-4 cells               pEC50            8.36
13  CO[C@H]1C=C[C@H](C)N2C[C@H]1n1cc(C(=O)NCc3c(F)cc(F)cc3F)c(=O)c(O)c1C2=O  HIV-1 (IIIB) in MT-4 cells               pEC50            8.85
